# reported GI50; entries follow
- Test system: HL-60
- Assay details: NCI tumour cell line growth inhibition, 48 h
Active and inactive are the calls of the source. No stated cut-off is given here; in the data, active = GI50 up to about 1.1 µM and inactive = higher.

Guide cases for GI50, answers given:
Nc1ccc2c(c1)CC1c3ccccc3C(C2)c2ccccc21
> 100 µM (inactive)
COc1cccc2ccc3c(c12)C(=O)OC31CCc2c(C)cccc21 (configuration not stated)
8.59 µM (inactive)
c1ccc(CSC(SCc2ccccc2)c2ccc3c(c2)OCO3)cc1
> 10 µM (inactive)
CCCN(CCC)C(=O)Cc1c2n(c3ccccc13)CCCc1ccccc1-2
15.4 µM (inactive)
COc1ccc2nc(C(=O)c3ccccc3)c(C)cc2c1
3.38 µM (inactive)

Output measured GI50 for this item: Cc1ccc(S(=O)(=O)N(CC(O)COc2ccccc2)c2c(F)c(F)c(F)c(F)c2F)cc1 (configuration not stated)
6.32 µM (inactive)

Identify measured GI50 corresponding to CC(C)(C)[Si](C)(C)OCCOCn1cc(F)c(=O)[nH]c1=O
> 100 µM (inactive)

Report measured GI50; entry is CC1(C)Oc2ccc3ccc(=O)oc3c2C(O)C1O (configuration not stated)
33.3 µM (inactive)
